Tested on: Pseudomonas aeruginosa
measurement_notes: Bactericidal activity against Pseudomonas aeruginosa ATCC 27853 after 18 to 24 hrs
Type: functional
measurement_parameters: read-out: MBC99.9
Overview of reported MBC across a group of compounds:
Form entry: value (µg/mL) — number only.

Please look up its MBC: CCCCCC[C@@H](O)CC1C(CCC)=NOC1CCCCCCCC(=O)OC (stereo not given in full)
50

Please look up its MBC: CCCCCC1C(CCC)=NOC1CC[C@H](O)CCCCCCCC(=O)OC (stereo not given in full)
100

Please look up its MBC: CCCCCCCCC1C(CCC)=NOC1CCCCCCCC(=O)OC (stereo not given)
50

---

System: Candida parapsilosis
measurement_notes: Fungicidal activity against Candida parapsilosis by micro dilution method
Assay type: functional
measurement_parameters: Lodderomyces parapsilosis
Overview of reported MFC across a group of compounds:
Form entry: value (mg/L) — number only.

>  <compound>
CCC(C)n1ncn(-c2ccc(N3CCN(c4ccc(OCC5COC(Cn6cncn6)(c6ccc(Cl)cc6Cl)O5)cc4)CC3)cc2)c1=O (configuration not stated)

>  <measurement_units>
mg/L

>  <MFC>
0.5

$$$$

Please look up its MFC: CCCCCC[C@@H](O)CC1C(CCC)=NOC1CCCCCCCC(=O)OC (some centres not stated)
128

Please look up its MFC: OC(Cn1cncn1)(Cn1cncn1)c1ccc(F)cc1F
32

---

Tested on: Streptococcus pyogenes
measurement_notes: Bactericidal activity against Streptococcus pyogenes clinical isolate after 18 to 24 hrs
Assay type: functional
measurement_parameters: read-out: MBC99.9
endpoint: MBC
Write the numeric value and append its unit.

Known MBC results, listed for orientation:
>  <compound>
CCCC1=NOC(CCCCCCCCC(=O)OC)C1 (stereo not given)

>  <MBC>
100 µg/mL

$$$$
>  <compound>
CCCCCC[C@@H](O)CC1C(CCC)=NOC1CCCCCCCC(=O)OC (stereo not given in full)

>  <MBC>
50 µg/mL

$$$$

Please look up its MBC: CCCc1cc(CCCCCCCCC(=O)O)on1
100 µg/mL

Please look up its MBC: CCCCCC1C(CCC)=NOC1CC[C@H](O)CCCCCCCC(=O)OC (stereo not given in full)
50 µg/mL

Please look up its MBC: CCCCCCCCC1C(CCC)=NOC1CCCCCCCC(=O)OC (stereo not given)
50 µg/mL

---

System: Candida tropicalis
measurement_notes: Antifungal activity against Candida tropicalis clinical isolate after 20 hrs by agar dilution method
Type: functional
endpoint: MIC90 (µg/mL)
Form entry: value (µg/mL) — number only.

Known MIC90 results, listed for orientation:
>  <compound>
OC(Cn1cncn1)(Cn1cncn1)c1ccc(F)cc1F

>  <value_reported>
16

$$$$
>  <compound>
CCCc1cc(CCCCCCCCC(=O)O)on1

>  <value_reported>
128

$$$$
>  <compound>
CCC(C)n1ncn(-c2ccc(N3CCN(c4ccc(OCC5COC(Cn6cncn6)(c6ccc(Cl)cc6Cl)O5)cc4)CC3)cc2)c1=O (configuration not stated)

>  <value_reported>
1

$$$$

API: value(readout=MIC90, system=Candida tropicalis) for record CCCCCCCCC1C(CCC)=NOC1CCCCCCCC(=O)OC (configuration not stated)
128

API: value(readout=MIC90, system=Candida tropicalis) for record CCCCCC[C@@H](O)CC1C(CCC)=NOC1CCCCCCCC(=O)OC (some centres not stated)
64

API: value(readout=MIC90, system=Candida tropicalis) for record CCCCCC1C(CCC)=NOC1CC[C@H](O)CCCCCCCC(=O)OC (some centres not stated)
64

---

Overview of reported MIC90 across a group of molecules:
Test system: Pichia kudriavzevii
measurement_notes: Antifungal activity against Candida krusei after 20 hrs by agar dilution method
Type: functional
Form entry: value (µg/mL) — number only.

Known MIC90 results, listed for orientation:
>  <molecule>
OC(Cn1cncn1)(Cn1cncn1)c1ccc(F)cc1F

>  <tgt>
Pichia kudriavzevii

>  <MIC90 [µg/mL]>
32

$$$$
>  <molecule>
CCCCCC[C@@H](O)CC1C(CCC)=NOC1CCCCCCCC(=O)OC (some centres not stated)

>  <tgt>
Pichia kudriavzevii

>  <MIC90 [µg/mL]>
64

$$$$

Please look up its MIC90: CCCCCC1C(CCC)=NOC1CC[C@H](O)CCCCCCCC(=O)OC (some centres not stated)
128

Please look up its MIC90: CCC(C)n1ncn(-c2ccc(N3CCN(c4ccc(OCC5COC(Cn6cncn6)(c6ccc(Cl)cc6Cl)O5)cc4)CC3)cc2)c1=O (configuration not stated)
0.6

---

Test system: Klebsiella pneumoniae
measurement_notes: Bactericidal activity against Klebsiella pneumoniae clinical isolate after 18 to 24 hrs
Type: functional
measurement_parameters: read-out: MBC99.9
Overview of reported MBC across a group of compounds:
Form entry: value (µg/mL) — number only.

>  <compound>
CCCCCC[C@@H](O)CC1C(CCC)=NOC1CCCCCCCC(=O)OC (stereo not given in full)

>  <endpoint>
MBC

>  <value_reported>
100

$$$$

Please look up its MBC: CCCCCCCCC1C(CCC)=NOC1CCCCCCCC(=O)OC (stereo not given)
100

Please look up its MBC: CCCCCC1C(CCC)=NOC1CC[C@H](O)CCCCCCCC(=O)OC (stereo not given in full)
100

---

Overview of reported MFC across a group of molecules:
Test system: Candida tropicalis
measurement_notes: Fungicidal activity against Candida tropicalis clinical isolate by micro dilution method
Format: functional

>  <molecule>
CCCc1cc(CCCCCCCCC(=O)O)on1

>  <MFC>
> 256 µg/mL

$$$$
>  <molecule>
CCC(C)n1ncn(-c2ccc(N3CCN(c4ccc(OCC5COC(Cn6cncn6)(c6ccc(Cl)cc6Cl)O5)cc4)CC3)cc2)c1=O (centres undefined)

>  <MFC>
> 256 µg/mL

$$$$
>  <molecule>
CCCCCC1C(CCC)=NOC1CC[C@H](O)CCCCCCCC(=O)OC (some centres undefined)

>  <MFC>
> 128 µg/mL

$$$$

Now look at this entry.
Please look up its MFC: CCCCCCCCC1C(CCC)=NOC1CCCCCCCC(=O)OC (centres undefined)
> 256 µg/mL

---

Overview of reported MIC90 across a group of compounds:
System: Candida tropicalis
measurement_notes: Antifungal activity against Candida tropicalis after 20 hrs by agar dilution method
Type: functional

Please look up its MIC90: CCCc1cc(CCCCCCCCC(=O)O)on1
> 256 µg/mL

Please look up its MIC90: CCCC1=NOC(CCCCCCCCC(=O)OC)C1 (stereo not drawn)
> 256 µg/mL

Please look up its MIC90: CCC(C)n1ncn(-c2ccc(N3CCN(c4ccc(OCC5COC(Cn6cncn6)(c6ccc(Cl)cc6Cl)O5)cc4)CC3)cc2)c1=O (stereo not drawn) [ITRACONAZOLE]
> 256 µg/mL

---

System: Pichia kudriavzevii
measurement_notes: Antifungal activity against Candida krusei after 20 hrs by agar dilution method
Assay type: functional
Overview of reported MIC90 across a group of compounds:

Known MIC90 results, listed for orientation:
>  <compound>
CCCC1=NOC(CCCCCCCCC(=O)OC)C1 (stereo not drawn)

>  <value_reported>
> 256 µg/mL

$$$$
>  <compound>
CCCc1cc(CCCCCCCCC(=O)O)on1

>  <value_reported>
> 256 µg/mL

$$$$

Please look up its MIC90: CCCCCCCCC1C(CCC)=NOC1CCCCCCCC(=O)OC (stereo not drawn)
> 256 µg/mL

Values were extracted from ChEMBL document CHEMBL3091355.
